# pKd per entry
# system_under_test: T1, hIL2-DM-his (human, UniProt P60568 21-153)
# T1 construct: expressed in ExpiCHO-S cells, nickel-column purified; also called hIL-2 mutein containing two point mutations K64G and N90R (with a his-tag); not shown: his-tag
# experiment_summary: BLI ForteBio, Ab on Protein A sensor
pKd is defined as minus the log10 of a concentration measured in mol/L.

Before answering, review these 2 worked examples.
{"binder": "K3G8 (antibody, V domains shown) VH: QVQLVQSGAEVKKPGATVKISCKVSGDTITAYYMHWVRQAPGQGLEWIGRIDPEDDSTKYAENFKGRVTITADTSTDTAYMELSSLRSEDTAVYYCTTITFLYSRELRWFAYWGQGTLVTVSS VL: DIVLTQSPATLSLSPGERATLSCQASQYIGNYLSWYQQKPGQAPRLLIYQATSLASGIPARFSGSRSGTDFTLTISSLEPEDFAVYYCLQHYSTPYTFGQGTKLEIK", "reported_measurement": 8.82}
{"binder": "K2G6 (antibody, V domains shown) VH: QVQLVQSGAEVKKPGATVKISCKVSGDTITAYYMHWVRQAPGQGLEWIGRIDPDDDSTKYAENFKGRVTITADTSTDTAYMELSSLRSEDTAVYYCTTITFYYSRELRWFAYWGQGTLVTVSS VL: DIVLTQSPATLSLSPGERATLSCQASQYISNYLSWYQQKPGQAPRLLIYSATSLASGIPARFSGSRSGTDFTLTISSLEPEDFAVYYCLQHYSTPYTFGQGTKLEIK", "reported_measurement": 8.88}

Now consider the entry below.
Item K4G6 (antibody, V domains shown) VH: QVQLVQSGAEVKKPGATVKISCKVSGDTITAYYMHWVRQAPGQGLEWIGRIDPDDDSTKYAENFKGRVTITADTSTDTAYMELSSLRSEDTAVYYCTTITFYYSRELRWFAYWGQGTLVTVSS VL: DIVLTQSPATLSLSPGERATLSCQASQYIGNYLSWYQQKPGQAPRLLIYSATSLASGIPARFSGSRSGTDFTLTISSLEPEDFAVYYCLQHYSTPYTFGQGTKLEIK : provide pKd
8.63
